Assay: yeast display, Sf9 membrane polyspecificity reagent, FACS + sequencing; frameworks hold sequencing errors
measurement_type: polyreactivity (PSR sort gate)

{"columns": ["seq_string", "test_result"],
 "data": [
  ["QVQLVESGVGLVQAAGSLRLSCAASGRIFKYYAMGWYRQAPGKERELVATISRGSRTNYADSVKGRFTISRDNAKNTVYLQMNSLKPEDTAVYYCAAQRLSASRPYGYWGQGTQVTVSS", "high polyreactivity"],
  ["QVQLVESGGGLVQAGGSLRLSCAASGNISPGNVMGWYRQAPGKERELVAAITISGGSTYYADSVKGRFTISRDNAKNTVYLQMNSLKPEDTAVYYCAKRTKFYYTGSGYGKYYYWGQGTQVTVSS", "high polyreactivity"],
  ["QVQLQESGGLVQAGGLRLSCAASGSDSYQEDMAWYRQAPGKERELVATISFGANTNYADSVKGRFTISRDNAKNTVYLQMNSLKPEDTAVYYCAAESLFDDYYGYWGQGTQVTVSS", "low polyreactivity"],
  ["QVQLVESGGGLVQAGGSLRLSCAASGSIFVWYAMGWYRQAPGKERELVARITSGGRTNYADSVKGRFTISRDNAKNTVYLQMNSLKPEDTAVYYCAAGRVSWSAYYYWGQGSQVTVSS", "high polyreactivity"],
  ["QVQLVESGGGLVQAGGSLRLSCAASGLTFAVYAMGWYRQAPGKERELVAAITYSGSRTYYADSVKGRFTISRDNAKNTVYLQMNSLKPEDTAVYYCNALYRRDIKFYYWGQGTQVTVSS", "high polyreactivity"],
  ["QVQLVESGGGLVQAGVSLRLSCAASGRTFPRYAMGWYRQAPGKERELVASISYSGGSTYYADSVKVRFTISRDTAKNTVYLQLNSLKPEDTAVYYCARRGRTSFKYYYWGQGTQVTVSS", "high polyreactivity"],
  ["QVQLVESGVGLVQAGGSLRLSCAASGSTFITYAMGWYRQAPGKERELVAAISTGGSTYYADSVKGRFTISRDNAKNTVYLQMNSLKPEDTAVYYCNAYSSSRGSTLQYSLQYDYWGQGTQVTVSS", "low polyreactivity"],
  ["QVQLVESGGGLVQAGGSLRLSCAASGSTFYAYAMGWYSQAPGKERELVAAITRSGGSTYYADSVKGRFTISRDNAKNTVYLQMNSLKPEDTDVYYCNKYGYKGGVGYDYWGQGTQVTLSS", "high polyreactivity"],
  ["QVQLVESGGGLVQAGGSLRLTCAASGRTLRNYAMGWYRQPPGKERELVATITYRGGSTYYADSVKGRFTISRDNAKNTVYLKRNCLKPEDTAVYYCAARTSSYSFQYAYNYWGQGTQVTVSS", "high polyreactivity"],
  ["QVQLVESGGGLVQAGGSLRLSCAACGFTFYYYAMGWYRQAPGKERELVASISASGGITYYADSVKGRFTISRDNAKNTVYLQMNSLKPEDTAVYYCATRQGYRLYYWGQGTQVNVSS", "high polyreactivity"]
]}

----------
Assay: yeast display, Sf9 membrane polyspecificity reagent, FACS + sequencing; frameworks hold sequencing errors
measurement_type: polyreactivity (PSR sort gate)

{"columns": ["seq_string", "test_result"],
 "data": [
  ["QVQLVESGGGLVQAGGSLRLSCAASGSTLDSYAMGSYRQAPGKERELVAAISGSGGSTYYADSVKGRFTISRDNAKNTVYLEMNSLKPEDTAVYYCDTDYSTQTLGYWYDYWGQGTQVSVSS", "low polyreactivity"],
  ["QVQLVESGGGLVQAGVSLRLSCAASGSILRQYAMGWYRQAPGKEWELVAAITGSGGSTSYADSVKGRFTISRDNAKNTVYLQMNSLKPEDTAVYYCNAYLSSRTRSTYGSLRMDYWGPGTQVTVSS", "high polyreactivity"],
  ["QVQLVESGGGLVQAGGSLRLSCAASGSIFWYYAMGWYRQAPGKERELDASITRGGSTKYADSVKGRFTISLDNAKNPVYLQMNSLKPEDTAVYYCATTYRLYRVNYDYYWGQGTQVSVSS", "high polyreactivity"],
  ["QVQLVESGGGLVQAGGSLRLSCAASGSIFQWYAMGWYRQAPGKERELVAAITISGGSTHYADSVKGRFTISRDNAKNTVYLQMNSLKPEDTAVYYCATPRYPSYDYWGQGTQVTVSS", "low polyreactivity"]
]}
